So I've got a bunch of sequences here, and I need their Tm values.
test: melting temperature; fluorescence melt of hairpins on a sequencing array, two-state fit, raised by 9.35 °C to match UV melts; details: sodium 0.088 M
Give bare numbers, in °C.

The following sequences have reported results that may help.
{"columns": ["polymer-sequence", "unit-abbrev", "Tm"],
 "data": [
  ["GTTGGACCGAAAGGTAAC (((..(((....))))))", "°C", 35.8],
  ["GCGACTCCTCGC ((((....))))", "°C", 48.6],
  ["GATCCATTCCTGGATC ((((((....))))))", "°C", 50.3]
]}

For each of the sequences below, note its Tm.
1. GCTCTGGGAAACCGGAGC ((((.((....)).))))
2. GATCAAGCGATTGATC ((((((....))))))
3. GCTTTTCCGAAAGGAAGC (((..(((....))))))
4. GATCGGGCGACCGATC ((((((....))))))
5. GATCTCTTATGAGATC ((((((....))))))

output:
1: 57.2; 2: 48; 3: 33.7; 4: 63.1; 5: 54.1

For each of the sequences below, note its Tm.
1. GTGTCCGGAAACGGATGC (..((((....))))..)
2. GGATGACGAAAGTCCTCC (((.(((....))).)))
3. GGAATCGAAAGATATTCC ((((((....)))..)))
4. GAATGGGGAAACCCACTC ((.((((....)))).))

output:
[48, 47.1, 29.7, 30]

For each of the sequences below, note its Tm.
1. GATCTTGTTTAAGATC ((((((....))))))
2. GGCAAGGCGAAAGCCGCC (((..(((....))))))
3. GCTAATGGAAACATCAGC (((.(((....))).)))
4. GGCAGTGGAAACATTGCC ((((.((....)).))))
5. GGCTACGAAAGTATAGCC ((((((....)))..)))
6. GCTTGGACGAAAGTCAGC (((..(((....))))))

output:
45.8
59.6
32.5
52.2
49.9
42.1
